# credit: FireProtDB (doi:10.1126/science.aai7825)

- test parameters: Escherichia coli (strain K12); pH 7.5; Thermal; Intensity; HEPES 20mM; transition: 2; whole UniProt chain shown
value type: Tm (°C)
Write down the numeric answer in °C and omit the unit.

In: State its Tm for this protein: Nicotinate phosphoribosyltransferase wild type, P18133 (protein) MTQFASPVLHSLLDTDAYKLHMQQAVFHHYYDVHVAAEFRCRGDDLLGIYADAIREQVQAMQHLRLQDDEYQWLSALPFFKADYLNWLREFRFNPEQVTVSNDNGKLDIRLSGPWREVILWEVPLLAVISEMVHRYRSPQADVAQALDTLESKLVDFSALTAGLDMSRFHLMDFGTRRRFSREVQETIVKRLQQESWFVGTSNYDLARRLSLTPMGTQAHEWFQAHQQISPDLANSQRAALAAWLEEYPDQLGIALTDCITMDAFLRDFGVEFASRYQGLRHDSGDPVEWGEKAIAHYEKLGIDPQSKTLVFSDNLDLRKAVELYRHFSSRVQLSFGIGTRLTCDIPQVKPLNIVIKLVECNGKPVAKLSDSPGKTICHDKAFVRALRKAFDLPHIKKAS
Out: 45.7
